From: patent US8242117B2

molecular target: p38α kinase (Homo sapiens)
Sequence (Q16539 whole entry): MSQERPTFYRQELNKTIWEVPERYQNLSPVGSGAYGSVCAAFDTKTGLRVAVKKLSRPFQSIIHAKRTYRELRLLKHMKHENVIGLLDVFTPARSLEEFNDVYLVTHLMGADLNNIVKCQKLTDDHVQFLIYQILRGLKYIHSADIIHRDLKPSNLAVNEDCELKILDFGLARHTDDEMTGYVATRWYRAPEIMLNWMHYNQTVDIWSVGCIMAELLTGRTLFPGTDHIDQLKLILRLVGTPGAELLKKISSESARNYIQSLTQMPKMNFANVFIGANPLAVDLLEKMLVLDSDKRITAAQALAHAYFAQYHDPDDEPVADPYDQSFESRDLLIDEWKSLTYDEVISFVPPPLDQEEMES
quantity: IC50

Task: Item under review: Cc1ccc(C(=O)NC2CC2)cc1-n1ncc(C(=O)NC2CCc3ccccc32)c1N (centres unmarked) . Reported IC50?
Output: < 1 µM

Task: Same lookup for Cc1ccc(C(=O)O)cc1-n1ncc(C(=O)c2ccccc2)c1N , please.
Output: 1 to 10 µM

Task: Same lookup for Cc1ccc(C(=O)NC2CC2)cc1-n1ncc(C(=O)c2cccc(C#N)c2)c1N , please.
Output: < 1 µM

Task: Same lookup for Cc1ccc(C(=O)NC2CC2)cc1-n1ncc(C(=O)c2cccc(CO)c2)c1N , please.
Output: < 1 µM

Task: Same lookup for CCOC(=O)c1c(C)nn(-c2cc(C(=O)NC3CC3)ccc2C)c1N , please.
Output: < 1 µM
